Measured inhibition of individual entries
# System: Staphylococcus aureus subsp. aureus Mu50
# Run Description: Inhibition of quorum sensing system in methicillin-resistant Staphylococcus aureus Mu50 assessed as potentiation of vancomycin-mediated reduction in CFU/biofilm at 100 uM preincubated for 20 hrs followed by vancomycin addition measured after 24 hrs (reference value: 30 +/- 14%)

[
  {
    "Substance Smiles": "O=C(NC[C@H]1CN(C(=O)c2ccccc2)CCO1)c1ccccc1Cl",
    "inhibition [%]": -6
  },
  {
    "Substance Smiles": "O=C(NC[C@@H]1O[C@H](CNC(=O)c2ccccc2Cl)[C@@H](O)[C@H]1O)c1ccccc1",
    "inhibition [%]": 93
  },
  {
    "Substance Smiles": "O=C(NC[C@@H]1CN[C@H](CNC(=O)c2ccccc2Cl)C1)c1ccccc1",
    "inhibition [%]": 62
  },
  {
    "Substance Smiles": "O=C(NC[C@@H]1C[C@H](CNC(=O)c2ccccc2Cl)CN1)c1ccccc1",
    "inhibition [%]": 54
  }
]

====

We begin with a simple list: items and their reported inhibition.
# System: Staphylococcus aureus subsp. aureus Mu50
# Run Description: Inhibition of quorum sensing system in methicillin-resistant Staphylococcus aureus Mu50 assessed as potentiation of vancomycin-mediated reduction in CFU/biofilm at 100 uM after 24 hrs (reference value: 30 +/- 14%)

[
  {
    "Compound": "O=C(NC[C@]1(O)CO[C@H](CNC(=O)c2ccccc2Cl)[C@H]1O)c1ccccc1",
    "inhibition": "92%"
  },
  {
    "Compound": "O=C(OC[C@H]1OC(O)[C@@](O)(COC(=O)c2cc(O)c(O)c(O)c2)[C@@H]1O)c1cc(O)c(O)c(O)c1 (stereo not given in full)",
    "inhibition": "57%"
  },
  {
    "Compound": "O=C(NC[C@@H]1CN[C@H](CNC(=O)c2ccccc2Cl)C1)c1ccccc1",
    "inhibition": "47%"
  },
  {
    "Compound": "O=C(NC[C@]1(O)CO[C@H](CNC(=O)c2ccccc2Cl)C1)c1ccccc1",
    "inhibition": "65%"
  },
  {
    "Compound": "O=C(NC[C@H]1CN(C(=O)c2ccccc2Cl)CCO1)c1ccccc1",
    "inhibition": "41%"
  }
]

====

# Tested on: Staphylococcus aureus subsp. aureus Mu50
# Run Description: Inhibition of quorum sensing system in methicillin-resistant Staphylococcus aureus Mu50 assessed as potentiation of vancomycin-mediated reduction in CFU/biofilm at 100 uM after 24 hrs (reference value: 30 +/- 14%)

[
  {
    "Substance Smiles": "O=C(NC[C@H]1CN(C(=O)c2ccccc2)CCO1)c1ccccc1Cl",
    "inhibition": "51%"
  },
  {
    "Substance Smiles": "O=C(NC[C@@H]1C[C@H](CNC(=O)c2ccccc2Cl)CN1)c1ccccc1",
    "inhibition": "50%"
  },
  {
    "Substance Smiles": "O=C(NC[C@@H]1CO[C@H](CNC(=O)c2ccccc2Cl)CO1)c1ccccc1",
    "inhibition": "91%"
  },
  {
    "Substance Smiles": "O=C(NC[C@@H]1O[C@H](CNC(=O)c2ccccc2Cl)[C@@H](O)[C@H]1O)c1ccccc1",
    "inhibition": "95%"
  }
]
